The following binders are listed with their measured EC50 values.
target-desc: T1, Full-length human CD96 on CHO-S cells (human, UniProt P40200 22-585)
T1 construct: also called CD96-CHOs; hCD96-CHOs
T1 sequence: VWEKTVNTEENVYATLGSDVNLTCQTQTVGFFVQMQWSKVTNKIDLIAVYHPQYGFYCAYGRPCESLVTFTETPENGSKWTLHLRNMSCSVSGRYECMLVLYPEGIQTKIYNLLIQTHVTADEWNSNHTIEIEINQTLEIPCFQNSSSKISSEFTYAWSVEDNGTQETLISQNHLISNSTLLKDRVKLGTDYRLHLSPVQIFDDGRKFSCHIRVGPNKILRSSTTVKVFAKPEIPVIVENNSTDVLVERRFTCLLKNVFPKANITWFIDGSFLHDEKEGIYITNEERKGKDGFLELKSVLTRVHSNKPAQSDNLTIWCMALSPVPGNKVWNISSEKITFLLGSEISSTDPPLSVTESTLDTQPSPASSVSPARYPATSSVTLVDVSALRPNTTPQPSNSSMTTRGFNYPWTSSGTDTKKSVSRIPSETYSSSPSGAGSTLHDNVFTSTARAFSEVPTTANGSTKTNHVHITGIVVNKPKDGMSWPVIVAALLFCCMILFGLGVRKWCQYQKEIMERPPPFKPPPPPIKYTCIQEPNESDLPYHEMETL
protocol-summary: cell ELISA, fixed CD96-overexpressing CHO-S cells
Give the value, in units of nM, as a plain number.

- binder: "h1719-003 (antibody, V domains shown, also called M719-003) VH: EVTLKESGPVLVKPTETLTLTCTVSGFSLSSYGVSWVRQPPGKGLEWLGVIWGDGNTNYHSVLISRLTISKDTSKSQVVLTLTNMDPVDTATYYCAKNNYYGSRYGYPMDYWGQGTTVTVSS VL: DIQMTQSPSSVSASVGDRVTITCKATQDVGTAVAWYQQKPGKAPKLLIYWASTRHTGVPSRFSGSGSGTDFTLTISSLQPEDFATYYCQQYGSSVLTFGGGTKVEIK"
  u: "nM"
  EC50: 0.028

Problem: Using the record for h1718-012 (antibody, V domains shown, Only variable regions are tied to this name) VH: EVQLVQSGAEVKKPGASVKVSCKASGYTITDYNMNWVRQAPGQRLEWIGVINPSYGITDYNQNFKDRVTITVDTSASTAYMELSSLRSEDTAVYYCAIQLRLPGYFDVWGQGTTVTVSS VL: DIQMTQSPSSLSASVGDRVTITCKASQDINQYLNWFQQKPGKAPKTLIYRANRLVDGVPSRFSGSGSGQDYTLTISSLQPEDFATYYCLKYDEFPYTFGGGTKVEIK , report its EC50.
Solution: 0.031
